test system: tetA promoter (PtetA)-lacZ reporter in E. coli KM3; type: cell-based; details: Table 4; sulfometuron 20 μg/ml (20 ppm); 48 hrs at 30° C.
measure: relative β-galactosidase activity, inducer Sm
Just the number, please, no unit after it.

// returns reported relative β-galactosidase activity, inducer Sm for input L1-28: library L1 hit, sulfonylurea-responsive TetR(B) variant (protein, Sulfonylurea responsive repressor L1-28) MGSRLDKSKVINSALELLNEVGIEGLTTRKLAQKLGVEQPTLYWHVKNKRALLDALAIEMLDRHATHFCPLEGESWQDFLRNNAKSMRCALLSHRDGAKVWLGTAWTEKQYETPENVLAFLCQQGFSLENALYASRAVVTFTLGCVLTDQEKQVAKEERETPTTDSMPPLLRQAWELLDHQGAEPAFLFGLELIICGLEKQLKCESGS
1.1
